Biological target: MRGPRX2 (Homo sapiens)
Sequence (Q96LB1 1-330): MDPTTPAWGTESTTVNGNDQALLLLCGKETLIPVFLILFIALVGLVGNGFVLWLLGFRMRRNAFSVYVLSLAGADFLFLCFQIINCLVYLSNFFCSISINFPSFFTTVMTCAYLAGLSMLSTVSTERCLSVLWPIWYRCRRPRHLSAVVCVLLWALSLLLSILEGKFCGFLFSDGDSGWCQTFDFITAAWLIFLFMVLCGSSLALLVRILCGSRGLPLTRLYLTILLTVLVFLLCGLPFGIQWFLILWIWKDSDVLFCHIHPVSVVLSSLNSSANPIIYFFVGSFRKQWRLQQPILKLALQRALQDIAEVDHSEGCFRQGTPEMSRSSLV
Assay: β-arrestin recruitment assay (antagonist mode), β-arrestin-CHO cells recombinantly expressing MRGPRX2
Type: cell-based
Set-up: expressed in transfected cells
Conditions: versus C48/80 (EC80 18 µM); read-out: Ki versus compound 48/80, β-arrestin assay

- compound: "CCc1c(C(C)C)[nH]c2nc3cc(F)c(F)cc3n2c1=O [Compound 24]"
  Ki (nM): 3.68

====

Target: MRGPRX2 (Homo sapiens)
Test: β-arrestin recruitment assay (antagonist mode), β-arrestin-CHO cells recombinantly expressing MRGPRX2
Format: cell-based
Set-up: expressed in transfected cells
Conditions: versus clomipramine (EC80 13 µM); read-out: IC50 versus clomipramine, β-arrestin assay

- chemical.string: "CCc1c(C(C)C)[nH]c2nc3cc(F)c(F)cc3n2c1=O"
  IC50 [µM]: 0.0172

====

Test: Metabolic stability in human liver microsomes
Format: in vitro ADME
Details: both sexes; human liver microsomes 0.25 mg/ml, compound 1 µM; read-out: Clint (intrinsic clearance)

- chemical.string: "CCc1c(C(C)C)[nH]c2nc3cc(F)ccc3n2c1=O"
  units.label: "µL/min/mg"
  microsomal CLint at 1 µM: 100
- chemical.string: "CCc1c(C(C)C)[nH]c2nc3cc(F)c(F)cc3n2c1=O"
  units.label: "µL/min/mg"
  microsomal CLint at 1 µM: 15
- chemical.string: "CCc1c(C(C)C)[nH]c2nc3nc(F)ccc3n2c1=O"
  units.label: "µL/min/mg"
  microsomal CLint at 1 µM: 28.4
- chemical.string: "CCc1c(C(C)C)[nH]c2nc3cc(C)c(C)cc3n2c1=O"
  units.label: "µL/min/mg"
  microsomal CLint at 1 µM: 131

====

Biological target: MRGPRX2 (Homo sapiens)
Assay: β-arrestin assay (agonist mode), β-arrestin CHO cells recombinantly expressing MRGPRX2
Type: cell-based
Conditions: normalized to CST-14 (EC80 5,000 nM)
Experimental: Eurofins DiscoverX (Fremont, CA, USA) provided engineered Chinese hamster ovary (CHO) cells stably expressing β-arrestin-2 fused to a large β-galactosidase fragment (enzyme acceptor, EA). These CHO-K1-β-arrestin-2 cells were commercially available (93-0164). […] The assays were carried out as previously described.[22] […] Chemiluminescence was measured on a Mithras LB 940 plate reader (Berthold Technologies, Bad Wildbad, Germany). […]

- molecule: "Cc1cc(=S)n2c(nc3ccccc32)[nH]1 [Compound 17]"
  target.entity: "MRGPRX2 (Homo sapiens)"
  units.label: "%"
  β-Arrestin assay % activation: -3
- molecule: "CC(C)c1cc(=O)n2c3ccccc3n(C)c2n1 [Compound 21]"
  target.entity: "MRGPRX2 (Homo sapiens)"
  units.label: "%"
  β-Arrestin assay % activation: -1
- molecule: "CCc1c(-c2ccccc2)[nH]c2nc3ccccc3n2c1=O [Compound 15]"
  target.entity: "MRGPRX2 (Homo sapiens)"
  units.label: "%"
  β-Arrestin assay % activation: 0
- molecule: "CCc1c(C(C)C)[nH]c2nc3cc(F)c(F)cc3n2c1=O [Compound 24]"
  target.entity: "MRGPRX2 (Homo sapiens)"
  units.label: "%"
  β-Arrestin assay % activation: -1
- molecule: "CCCc1c(C(C)C)[nH]c2nc3ccccc3n2c1=O [Compound 11]"
  target.entity: "MRGPRX2 (Homo sapiens)"
  units.label: "%"
  β-Arrestin assay % activation: 1
- molecule: "Cc1cc(=O)n2c(n1)oc1ccccc12 [Compound 22]"
  target.entity: "MRGPRX2 (Homo sapiens)"
  units.label: "%"
  β-Arrestin assay % activation: 0
- molecule: "CCc1c(C(C)C)[nH]c2nc3cc(C)c(C)cc3n2c1=O [Compound 27]"
  target.entity: "MRGPRX2 (Homo sapiens)"
  units.label: "%"
  β-Arrestin assay % activation: 0

Hello, the source for this data is paper PMC12010006, in case you need it.
